Data credit: PubChem BioAssay (NCI)

Test system: CAKI-1 renal
PROTOCOL DETAILS: NCI-60 one-dose screen, 48 h
CONDITION PARAMETERS: 10 µM unless noted
Compounds without any hit were thinned out: in the full panel of roughly 83,000, 20% have a hit. Activity calls are given as the source filed them. The calls were made as follows: active = growth percent below 10; inactive = the rest.
Pick from y for active, n for inactive when you respond.

COc1ccc(C(=O)c2cc3c(N)c(C(=O)Nc4ccc(C)cc4)sc3nc2C)cc1: n
COc1ccc(-c2noc(C(=O)O)c2-c2cc(OC)c(OC)c(OC)c2)cc1: n
Cn1c(I)c(C#CCO[Si](C)(C)C(C)(C)C)c(=O)[nH]c1=O: n
COc1ccc(/C=C/C(=O)c2cccc(OCCCCOc3cccc(C(=O)/C=C/c4ccc(OC)c(OC)c4)c3)c2)cc1OC: n
Cc1ccc(Nn2c(SCC(=O)Nc3nc(-c4ccccc4)cs3)nc(C)c2C)cc1: n

Task: What classification did COc1cc2c(c(OC)c1OC)CCC(c1cccc(C(=O)Nc3cccc(Cl)c3)c1)O2 (stereo not given) end up with in this test?
Output: n

Task: Next entry: COC(=O)c1c(C)nc(C)c2c1C(=O)C(Br)=C(NCc1ccccc1)C2=O
Output: n

Task: Next entry: C=C(C)[C@@H]1CCC[C@]2(COS(=O)(=O)c3ccc(C)cc3)CC[C@]3(C)[C@@H](CC[C@@H]4[C@@]5(C)CCCNC(C)(C)[C@@H]5CC[C@]43C)[C@@H]12
Output: y

Task: Next entry: N#CC(C#N)N=Nc1ccc(Br)cc1
Output: y

Task: Next entry: COc1cc(/C=C/C(=O)c2ccc(F)cc2)ccc1OCCCCOc1ccc(/C=C/C(=O)c2c(C)nc3ccccc3c2C)cc1OC
Output: n
